# experiment_summary: inhibitors of E-selectin induction by TNFa, primary screen, imaging, HUVEC, immunofluorescence, MLSMR starter and 10KST1 sets (AID 487);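 also: signal is fraction of cell area covered by stained E-selectin grains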
# assay_conditions: HUVEC TNFalpha-induced E-selectin immunofluorescence imaging, at 2 µM; stronger effect = higher value
Binary classification by inhibition, with -40% as an inclusive lower bound for MET; all other cases are NOT MET.

Cc1ccc(NC(=O)CSc2nnc(-c3ccco3)c(-c3ccco3)n2)cc1	NOT MET

Test whether the compound COc1ccc(CCNc2oc(COc3ccc(F)cc3)nc2C#N)cc1 records inhibition of -40% or higher.
MET

Threshold query (inhibition >= -40%) on Cn1c(=O)c2c(nc(CN3CCOCC3)n2CC(O)CO)n(C)c1=O (configuration not stated)
MET

Is inhibition for COc1ccc(C2C(C#N)=C(C)NC3=C2C(=O)c2ccccc23)cc1 (configuration not stated) at or above -40%?
MET

Could you tell me if the measured inhibition of CCCNC1=C(C)C(=O)CC1 reaches -40% or more?
MET

Decide: is the reported value of inhibition for CC1(C)CC(=O)C2=C(C1)OC(N)=C(C#N)C2C1C=CCCC1 (configuration not stated) equal to or greater than -40%?
NOT MET

###

# experiment_summary: inhibitors of TNFa-induced NFkB p65 translocation, primary screen, imaging, HUVEC, MLSMR starter and 10KST1 sets (AID 438);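 also: compound added about 3h40 before a 20 min TNFalpha stimulation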;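 as to inhibition: signal is the nuclear over cytoplasmic p65 intensity ratio per well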
# assay_conditions: HUVEC TNFa-induced p65 nuclear translocation; at 2 µM, stronger effect = higher value, 0% TNFa-plus-vehicle, 100% no-TNFa wells
attribute_measured: inhibition (%)
Give your result in % as a bare value.

Examples with their reported inhibition follow.
CCCCSc1nnc2n(CCc3ccccc3)c(=O)c3c4c(sc3n12)COC(C)(C)C4	-4.4
O=C1C2ON(c3ccccc3)C(c3cccnc3)C2C(=O)N1c1ccc(Cl)c(Cl)c1 (stereo not given)	-5.7

The compound identified as Cc1nc2ccccc2c2oc(C(=O)NCCN3CCCCC3C)cc12 (stereo not given) registered its inhibition at 5.4

inhibition in this record for C=CCSc1nc(N)c2c(C)c(C)sc2n1 : 3

Value of inhibition reported for the compound Cc1ccc2[nH]c3c(c2c1)CCc1cn[nH]c1-3 is 5.1

# compound Cc1onc(-c2ccccc2Cl)c1C(=O)Nc1cccnc1 ; its inhibition = -2.3

###

Quick reference: NADPH fluorescence slope of the listed items.
# tgt: Voltage-gated potassium channel subunit beta-2 (Rattus norvegicus) (UniProt P62483)
# Sequence (P62483 whole entry, looked up): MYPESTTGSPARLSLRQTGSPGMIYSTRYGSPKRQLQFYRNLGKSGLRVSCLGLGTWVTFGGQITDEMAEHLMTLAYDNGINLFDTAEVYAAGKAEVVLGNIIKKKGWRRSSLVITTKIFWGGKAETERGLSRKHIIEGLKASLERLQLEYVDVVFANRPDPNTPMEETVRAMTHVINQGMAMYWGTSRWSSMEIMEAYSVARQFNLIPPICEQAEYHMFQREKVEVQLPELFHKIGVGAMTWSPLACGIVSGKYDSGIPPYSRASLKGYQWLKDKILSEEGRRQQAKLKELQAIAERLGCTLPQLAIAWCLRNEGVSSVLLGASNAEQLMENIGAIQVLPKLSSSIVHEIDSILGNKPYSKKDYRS
# experiment_summary: KvBeta positive modulators, primary screen, biochemical, NADPH fluorescence (AID 623);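 also: fluorescence intensity change per second fitted from 20 to 320 s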
# assay_conditions: Recombinant KvBeta, NADPH fluorescence decrease slope, 10 min; at 10 µM; stronger effect = lower value
Lab note: record just the number, no unit beside it.

Previously resolved entries follow.
C=CCN1C(=O)CC(C(=O)NC)SC1=Nc1ccc(C(=O)OCC)cc1 (stereo unspecified)	-5.9e-05
COc1ccccc1C(=O)N1CCN=C1SCc1cccnc1	-3.9e-05
Cc1cccc(NC(=O)COc2ccc(Br)cc2)n1	6.5e-05
CC1(C)NC(=O)N(CC(O)COc2cc3ccccc3cc2C(=O)N2CCCCC2)C1=O (stereo unspecified)	2.1e-06
CS(=O)(=O)N(CC(=O)NCCSCc1cccc(Cl)c1)c1ccc2c(c1)OCO2	-5.8e-05

NADPH fluorescence slope for CCOC(=O)N1CCC(c2cc(=O)n3[nH]c(C)c(-c4ccc(F)cc4)c3n2)CC1 is 1.5e-07

Consider COC(=O)c1c(NC(=O)CSc2nnc(-c3cccnc3)n2Cc2ccco2)sc(C)c1C . Its measured NADPH fluorescence slope is -2.7e-05

Notebook: Nn1c(Cc2ccccc2F)nnc1SCC(=O)N1CC(=O)Nc2ccccc21 , NADPH fluorescence slope read as 6.9e-08

Short answer for O=C(NCc1ccc2c(c1)OCO2)c1ccccn1 : NADPH fluorescence slope was 4.1e-05

Record Nn1c(SCC(=O)NC2CCCCC2)nnc1C1CC1 , field NADPH fluorescence slope: 4.6e-05

// NADPH fluorescence slope value for Cc1ccccc1-n1c(=O)cc(N2CCN(C(=O)c3ccco3)CC2)[nH]c1=O : 1.7e-05

###

# experiment_summary: inhibitors of TNFa-induced NFkB p65 translocation, primary screen, imaging, HUVEC, MLSMR starter and 10KST1 sets (AID 438);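 also: compound added about 3h40 before a 20 min TNFalpha stimulation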
# assay_conditions: HUVEC TNFa-induced p65 nuclear translocation; measured here: nuclei count (cytotoxicity indicator), at 2.08 µM
Classification field. Basis: cell count. Definitions: interval 1: < 400; interval 2: ≥ 400 and < 600; interval 3: ≥ 600

Example results:
CC(=O)N(C(C)=O)c1ncc2c([nH]c3ccccc32)c1C#N	interval 1
CC12CN3CC(=O)N4CC5(C)CN(CC(C)(C4)C5=O)C(=O)CN(C1)CC(C)(C3)C2=O	interval 2
COc1cccc(C(=O)Nc2cc(C)c3c(=O)oc4ccccc4c3n2)c1	interval 2

Category of CCCn1c(SCC(=O)Nc2ccccc2C(=O)OCC)nc2c1c(=O)n(C)c(=O)n2C :
interval 1

Using the reported cell count, which band applies to CCSc1nc2sc3c(c2c(=O)n1C1CCCCC1)CCN(C)C3 ?
interval 1

Which of the defined bands does the recorded cell count of O=S(=O)(c1cccc2nsnc12)N1CCN(C/C=C/c2ccccc2)CC1 sit within?
interval 3

Input OC1C[N+]2(CCCCC2)C1 ; output its category
interval 1

In plain terms, what class is CC1(C)C2CCC1(C)C(OC(=O)CC(=O)O)C2 (stereo unspecified) ?
interval 2

For the record CCN(CC)CCOC(=O)c1c(C)n(C)c2ccc(OC)cc12 , report the class its cell count corresponds to.
interval 3

Determine which band this compound sits in: CN=C(c1ccco1)n1c(=S)nc(-c2ccco2)n(C)c1=S
interval 1

Exam item: assign Cc1ccsc1C(C(=O)NC1CCCCC1)N(C(=O)Cc1cccs1)C1CC1 (stereo unspecified) to the correct category.
interval 2

Hey, which category is O=c1c2ccccc2nc(SCc2cccc(F)c2)n1Cc1ccco1 in, do you know?
interval 1

Which bin, given its cell count, does CC(=O)Nc1ccc(N=Cc2nc(-c3ccc(C)cc3)oc2O)cc1 occupy?
interval 3

GET /class?item= CCc1ccccc1NC(=O)CCc1nc(-c2ccc(C)cc2)no1
interval 2

Would you mind sorting Cc1nn(C(=O)c2cc3sccc3[nH]2)c(C)c1C into the appropriate category?
interval 2

Which category does the recorded cell count put CC1(C)CC(=O)C2=C(C1)OC(N)=C(C#N)C21C(=O)N(CN2CCOCC2)c2ccccc21 (stereo unspecified) in?
interval 1

Record CN1CCN(Cc2nc3c(c(=O)[nH]c(=O)n3C)n2CCc2ccccc2)CC1 — which class?
interval 3

Field: class (cell count) — entry: CC(=O)NCCOc1cccc(OCCNC(C)=O)c1
interval 1

Which class is correct for the following compound? O=C(c1cnn2c1NC(c1ccco1)CC2C(F)(F)F)N1CCN(c2cccc(Cl)c2)CC1 (stereo unspecified)
interval 1

Which category fits this record: Cc1onc(-c2ccccc2Cl)c1C(=O)NCCn1c(C)cc2ccccc21
interval 3

Quick check: band for Cc1cccc(NC(=O)COc2ccc(Br)cc2)n1
interval 2

Record Cn1c(=O)c2c(nc(NCc3ccco3)n2Cc2ccc(Cl)cc2Cl)n(C)c1=O — which class?
interval 3

Band for Nc1nc(-c2ccc(Br)s2)c(Br)s1 ?
interval 2

Place this compound in its band: O=C(C1CCN(c2nnc(-n3cccc3)s2)CC1)N1CCOCC1
interval 3

###

Entries and their measured nuclei count follow.
# experiment_summary: inhibitors of mutant huntingtin aggregation, primary screen, imaging, exon1htt(103Q)mCFP cells, high-content imaging (AID 483);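 also: compound exposure lasted 3 days before fixation; percent of the per-plate median nuclei count of sample wells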
# assay_conditions: exon1htt(103Q)mCFP cell line, aggregate imaging, at 2 µM; measured here: cell count, toxicity

CCOC(=O)C1CCCN(C(=O)c2cc3c(=O)n4cccc(C)c4nc3n2C)C1 (configuration not stated)	91.5%
CS(=O)(=O)N(CC(=O)NCc1ccncc1)Cc1ccc(Cl)cc1	107%
Cc1c(NC(=O)C2CCCCN2S(=O)(=O)c2ccc(Cl)cc2)c(=O)n(-c2ccccc2)n1C (configuration not stated)	112%
COc1cc(S(=O)(=O)n2nnc3ccccc32)c(OC)cc1Cl	93%

Reported nuclei count of CC(=O)C1=C(C)NC(C)=C(C(C)=O)C1c1cccs1 : 103%

The molecule listed as Cc1onc(-c2ccccc2)c1C(=O)Nc1ccc(S(=O)(=O)N2CCCCC2)cc1 has a reported nuclei count of 97.3%

###

# key: entry, value: inhibition
# tgt: Dual specificity protein phosphatase 6 (Homo sapiens)
# experiment_summary: DUSP6 inhibitors restoring Erk phosphorylation by chemical complementation, primary imaging in DUSP6-transfected HeLa (AID 609);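 also: phospho-Erk level distribution per well compared with pooled transfected vehicle control wells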
# assay_conditions: HeLa MKP-3 transfected, phospho-Erk imaging KS statistic; at 10 µM; stronger effect = higher value; cells stimulated with TPA for 15 min
Report the value in % with no unit label.

Record N#Cc1nc(COc2ccc(Br)cc2)oc1N1CCN(Cc2ccccc2)CC1 , field inhibition: 12.7

So, CCOC(=O)c1[nH]c2ccc(OC)cc2c1NC(=O)CCN1CCCC(C)C1 (centres undefined) ? Its inhibition was 11.4

Looking up COc1ccc(/C(O)=C2\C(=O)C(=O)N(CCN(C)C)C2c2cccc(OC)c2OC)cc1Cl (centres undefined) , I found its inhibition recorded as 11.4

Notebook: COC(=O)COc1ccc(Oc2nc(SC)nc(N(C)C)n2)nn1 , inhibition read as -3.95

Form: compound = Cc1c2c([n+]3n1CCC3)CC(C)(C)CC2=O ; inhibition = -7.67

// field: inhibition; key: CC(Sc1ccc2ccccc2n1)C(=O)O (centres undefined) ; value = 7.21

Please fill in: inhibition reported for O=C(O)c1ccc(C2CCCCC2)cn1 = 3.97
